List of IC50 values.
- MEASURED ON: Androgen receptor (AR) (Homo sapiens, UniProt P10275)
- Sequence (P10275 1-920): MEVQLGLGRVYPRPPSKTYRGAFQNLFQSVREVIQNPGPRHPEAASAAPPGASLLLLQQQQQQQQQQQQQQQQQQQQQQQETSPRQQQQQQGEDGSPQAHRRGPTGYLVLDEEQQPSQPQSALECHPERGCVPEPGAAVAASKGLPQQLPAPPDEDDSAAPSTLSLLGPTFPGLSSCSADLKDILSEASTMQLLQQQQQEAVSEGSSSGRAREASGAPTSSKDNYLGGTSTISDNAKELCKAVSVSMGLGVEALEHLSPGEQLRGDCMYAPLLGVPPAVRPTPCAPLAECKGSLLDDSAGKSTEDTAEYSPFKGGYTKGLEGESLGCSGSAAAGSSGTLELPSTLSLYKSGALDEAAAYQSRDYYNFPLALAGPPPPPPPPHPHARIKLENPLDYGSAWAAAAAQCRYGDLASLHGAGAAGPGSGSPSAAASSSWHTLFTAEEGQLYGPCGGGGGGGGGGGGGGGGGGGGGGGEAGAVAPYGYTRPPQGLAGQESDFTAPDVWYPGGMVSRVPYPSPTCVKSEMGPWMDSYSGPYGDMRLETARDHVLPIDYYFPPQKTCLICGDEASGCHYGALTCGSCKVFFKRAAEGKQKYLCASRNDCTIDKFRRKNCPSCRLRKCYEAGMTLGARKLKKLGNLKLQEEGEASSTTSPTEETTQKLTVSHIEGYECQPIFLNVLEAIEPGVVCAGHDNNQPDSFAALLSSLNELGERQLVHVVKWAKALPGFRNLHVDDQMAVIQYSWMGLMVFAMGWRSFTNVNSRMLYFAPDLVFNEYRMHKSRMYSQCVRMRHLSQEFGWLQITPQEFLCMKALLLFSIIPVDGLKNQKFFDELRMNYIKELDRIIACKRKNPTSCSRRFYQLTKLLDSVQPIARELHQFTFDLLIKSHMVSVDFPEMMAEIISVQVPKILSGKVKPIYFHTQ
- METHOD SUMMARY: Androgen receptor (AR) reporter gene assay (luciferase)
- STUDY CONDITIONS: AR+ARE/Luc HEK293T cells, stimulated with 11-KDHT, 24h incubation, Bright-Lite luminescence; read-out: HEK293 Luc IC50

Take a look at these entries with their results.
CCOc1c(C#N)cc2c(c1Cl)CCCC2Nc1ccc2[nH]ncc2c1 (centres unmarked)
0.001 to 0.5 µM
N#Cc1cc2c(c(Cl)c1OCCCl)CCCC2c1cccc2cn[nH]c12 (centres unmarked)
0.001 to 0.5 µM
CNC(=O)c1ccc(NC2CCCc3c2cc(C#N)c(OCCCl)c3Cl)cn1 (centres unmarked)
0.001 to 0.5 µM
Oc1ccc(C2CCc3cc(OCCCl)c(Cl)cc32)cc1 (centres unmarked)
1 to 2 µM

Turning now to a further molecule:
Let me know recorded IC50 for N#Cc1cc2c(c(Cl)c1OCCCl)CCCC2Nc1ccc(N2CCOCC2)nc1 (centres unmarked) , thanks.
0.5 to 1 µM

###

Each entry below carries its reported IC50.
- MEASURED ON: Androgen receptor (AR) (Homo sapiens, UniProt P10275)
- Construct: expressed in transfected cells; host or cells: HEK293T (AR+ARE/Luc)
- METHOD SUMMARY: Androgen receptor (AR) reporter gene assay (luciferase)
- Type: cell-based
- STUDY CONDITIONS: AR+ARE/Luc HEK293T cells, stimulated with 11-KDHT, 24h incubation, Bright-Lite luminescence; read-out: HEK293 Luc IC50

Would you please look over these solved cases?
ClCCOc1c(Cl)cc2c(c1Cl)CCCN2c1cnc2[nH]ncc2c1
500 to 1000 nM
N#Cc1cc2c(c(Cl)c1OCCCl)CCCC2Nc1ccc2[nH]ncc2n1 (stereo not drawn)
1 to 500 nM
Oc1ccc2c(c1)CCN(C1CCCc3c1cc(Cl)c(OCCCl)c3Cl)C2 (stereo not drawn)
> 2000 nM
N#Cc1cc2c(c(Cl)c1OCCCl)CCCC2Nc1ccccc1 (stereo not drawn)
1 to 500 nM
Cn1ccc(NC2CCCc3c2cc(C#N)c(OCCCl)c3Cl)cc1=O (stereo not drawn)
500 to 1000 nM

Fill in: IC50 on Androgen receptor (AR) (Homo sapiens, UniProt P10275), entry CN1C(=O)c2ccc(C3CCCc4c3cc(C#N)c(OCCCl)c4Cl)cc2C1=O (stereo not drawn)
1 to 500 nM

Given N#Cc1cc2c(c(Cl)c1OCCCl)CCC[C@H]2c1cnc(N)nc1 [HANT-204B] , report its IC50 on Androgen receptor (AR) (Homo sapiens, UniProt P10275).
1 to 500 nM

Look up and report measured IC50 (Androgen receptor (AR) (Homo sapiens, UniProt P10275)) for the following compound: COc1cncc(NC2CCCc3c2cc(C#N)c(OCCCl)c3Cl)c1 (stereo not drawn)
1 to 500 nM

Give IC50 only, for N#Cc1cc2c(c(Cl)c1OCCCl)CCCC2c1cccnc1 (stereo not drawn) , using Androgen receptor (AR) (Homo sapiens, UniProt P10275) data.
1 to 500 nM

###

- MEASURED ON: UniProt:P10275
- METHOD SUMMARY: Androgen receptor (AR) reporter gene assay (luciferase)
- STUDY CONDITIONS: AR+ARE/Luc HEK293T cells, stimulated with 11-KDHT, 24h incubation, Bright-Lite luminescence; read-out: HEK293 Luc IC50
pIC50: −log10 of the molar value.
TEST READOUT: pIC50

The examples below pair each entry with its known result.
N#Cc1cc2c(c(Cl)c1OCCCl)CCCC2c1cnc(NCCO)nc1 (centres unmarked)
6.30 to 9.00
CN1CCc2c(cc(Cl)c(OCCCl)c2Cl)C1c1ccc2[nH]ncc2c1 (racemic)
6.30 to 9.00
N#Cc1cc2c(c(Cl)c1OCCCl)CCCC2NC1CCCOC1 (centres unmarked)
< 5.70
N#Cc1cc2c(c(Cl)c1OCCCl)CCCC2c1cnc2[nH]nc(-c3ccncc3)c2c1 (centres unmarked)
6.30 to 9.00
N#Cc1cc2c(c(Cl)c1OCCCl)CCCC2c1ccc2oc(=O)[nH]c2c1 (centres unmarked)
6.30 to 9.00
Cn1ncc2cc(C3CCCc4c3cc(Cl)c(OCCCl)c4Cl)ccc21 (centres unmarked)
< 5.70
N#Cc1cc2c(c(Cl)c1OCCCl)CCCC2c1cnc2[nH]c(=O)ccc2c1 (centres unmarked)
6.30 to 9.00
OC1CCN(C2CCCc3c2cc(Cl)c(OCCCl)c3Cl)CC1 (centres unmarked)
6.00 to 6.30
Oc1ccc(C2CCc3c2ccc(OCCCl)c3Cl)cc1 (centres unmarked)
6.30 to 9.00
N#Cc1cc2c(c(Cl)c1OCCCl)CCCC2Nc1cnc(N)nc1 (centres unmarked)
6.30 to 9.00

Attention now turns to another entry.
Using known records, supply pIC50 for N#Cc1cc2c(c(Cl)c1OCCCl)CCCC2Oc1cccnc1 (centres unmarked)
6.30 to 9.00

###

- MEASURED ON: Androgen receptor (AR) (Homo sapiens)
- METHOD SUMMARY: Androgen receptor (AR) reporter gene assay (luciferase)
- STUDY CONDITIONS: AR+ARE/Luc HEK293T cells, stimulated with 11-KDHT, 24h incubation, Bright-Lite luminescence; read-out: HEK293 Luc IC50
- Method: Androgen receptor (AR) reporter gene assay […] • 1. dissolve the described compounds in 100% DMSO at a final concentration of 10 mM. […] Luminescence values (RLU) were measured using Envision. Based on the results, the IC50 values of the compounds described were calculated. […]
pIC50: −log10 of the molar value.
TEST READOUT: pIC50

Worked cases, pIC50 given:
N#Cc1cc2c(c(Cl)c1OCCCl)CCCC2Nc1ccncc1 (stereo not drawn)
< 5.70
N#Cc1cc2c(c(Cl)c1OCCCl)CCCC2Nc1cncc(F)c1 (stereo not drawn)
6.30 to 9.00
CNC(=O)c1n[nH]c2ccc(C3CCCc4c3cc(Cl)c(OCCCl)c4Cl)cc12 (stereo not drawn)
< 5.70
Oc1ccc(C2CCCc3c2cc(Cl)c(OCCCl)c3Cl)cc1F (stereo not drawn)
5.70 to 6.00
N#Cc1cc2c(c(Cl)c1OCCCl)CCCC2NC(=O)C1CCCCC1 (stereo not drawn)
6.00 to 6.30

Quick one: give measured pIC50 for `ClCCOc1c(Cl)cc2c(c1Cl)CCC[C@H]2c1ccc2[nH]ncc2c1`
6.30 to 9.00

Give the value of pIC50 reported for the following: ClCCOc1c(Cl)cc2c(c1Cl)CCCC2c1ccc2[nH]ncc2c1 (stereo not drawn)
6.30 to 9.00

Assign pIC50 to the following record: Fc1cc2c(c(F)c1OCCCl)CCCC2c1ccc2[nH]ncc2c1 (stereo not drawn)
6.00 to 6.30

Look up pIC50 of N#Cc1c2c(cc(Cl)c1OCCCl)C(c1ccc(O)cc1)CCC2 (stereo not drawn) and report it.
6.30 to 9.00

This collection of values is drawn from patent EP4678634A1.
